Tested on: HEK293
Experiment: Cytotoxic Profiling of Annotated Libraries Using Quantitative High-Throughput Screening (AID 1296008); note: % is set by controls: 0 for no effect and ±100 for the full control effect; nearly all actives have a fitted effect of over 60% in size
Conditions: Five cell lines viability, CellTiter-Glo ATP luminescence, 48-72 h; stronger effect = lower value
Results filed as inconclusive are left out.
# reported max response; entries follow
Value expressed in %; do not type the unit.

O=C(O)c1nn(Cc2ccc(Cl)cc2Cl)c2ccccc12 ... -10.4

stdin: I'd like to know its max response. The compound in question is Sc1ccccc1Cl
stdout: -0.79

stdin: I'd like to know its max response. The compound in question is CN(C)CCc1c[nH]c2ccccc12
stdout: -13.9

stdin: I'd like to know its max response. The compound in question is CN1C[C@@H](NS(=O)(=O)N(C)C)C[C@@H]2c3cccc4c3c(cn4C)C[C@H]21
stdout: -5.36

stdin: I'd like to know its max response. The compound in question is CCN(CC)C(C)C(=O)c1ccccc1 (stereo not drawn)
stdout: -27.4

stdin: I'd like to know its max response. The compound in question is COP(=S)(OC)Oc1ccc(Sc2ccc(OP(=S)(OC)OC)cc2)cc1
stdout: 3.86

stdin: I'd like to know its max response. The compound in question is CC[C@]1(O)CC[C@H]2[C@@H]3CCC4=CCCC[C@@H]4[C@H]3CC[C@@]21C
stdout: -119

* * *

Tested on: PAD
Test: qHTS profiling for inhibitors of Plasmodium falciparum proliferation (AID 504749);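 note: 0% = DMSO vehicle and full inhibition = artemisinin control; nearly all actives have a fitted effect of over 60% in size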
Conditions: P. falciparum in erythrocytes, SYBR Green DNA, 72 h; series mostly up to 28.7 µM
Records with an inconclusive call do not appear. Calls of active or inactive are those of the source. The call rests on the fitted dose curve; in most records, active means well fitted inhibition curve with a large enough effect; inconclusive means small, poorly fitted or top-dose-only effect; inactive means flat fitted curve, though single readings scatter.
Parameter call: string, one of yes (1) = active, no (0) = inactive

OC(c1ccccc1)(c1ccccc1)C1CCNCC1 ... no (0)
Cc1ccc(N=CN(C)C=Nc2ccc(C)cc2C)c(C)c1 ... no (0)
Oc1c(Br)cc(Br)cc1Br ... no (0)

stdin: Hi, do you know how CCCCCCCCC(=O)NCc1ccc(O)c(OC)c1 came out in this test?
stdout: no (0)

stdin: Hi, do you know how CN1CCc2cc(Cl)c(O)cc2[C@H]2c3ccccc3CC[C@@H]21 came out in this test?
stdout: no (0)

* * *

Settings: Ebola virus entry assay, ratio channel
Calls of active or inactive are those of the source. The rule behind the calls is not given here.
Parameter call: string, one of true = active, false = inactive

stdin: Hi, do you know how CN(C)CCc1c[nH]c2ccc(O)cc12 came out in this test?
stdout: false

stdin: Hi, do you know how N=C(N)c1ccc(OCCCOc2ccc(C(=N)N)cc2)cc1 came out in this test?
stdout: false

stdin: Hi, do you know how CCCNC(C)(C)COC(=O)c1ccccc1 came out in this test?
stdout: false

* * *

Experiment: qHTS of pediatric cancer cell lines to identify multiple opportunities for drug repurposing: Primary screen for Rh41 cells (AID 1347108); note: nearly all actives have a fitted effect of over 70% in size
Conditions: Rh41 rhabdomyosarcoma viability, CellTiter-Glo luminescence, 48 h; series mostly up to 46 µM
Inconclusive results are not listed. Active and inactive are the calls of the source. Calls come from the whole dose curve; as a rule, active = well fitted cell-killing curve with a large enough effect; inconclusive = small, poorly fitted or top-dose-only effect; inactive = no such curve, though single readings can be large or run the other way.
Parameter call: string, one of true (1) (active), false (0) (inactive)

Record excerpt, results attached:
NCc1cccnc1 ... false (0)
CCC(=O)C(CCN(C)C)(c1ccccc1)c1ccccc1 ... false (0)
COc1cc(CC(C)N)cc2c1OCO2 (stereo not given) ... false (0)
CCN(CC)Cc1nccn1-c1ccc([N+](=O)[O-])cc1C(=O)c1ccccc1Cl ... false (0)

stdin: Hi, do you know how CCCCC1C(=O)NC(=O)N(C2CCCCC2)C1=O (stereo not given) came out in this test?
stdout: false (0)

stdin: Hi, do you know how O=C(O)CCCCCCNC1c2ccccc2CCc2ccccc21 came out in this test?
stdout: false (0)

stdin: Hi, do you know how CCC(OC(C)=O)C(CC(C)NC)(c1ccccc1)c1ccccc1 (stereo not given) came out in this test?
stdout: true (1)

stdin: Hi, do you know how CCOC(=O)NC(C)(C)Cc1ccc(Cl)cc1 came out in this test?
stdout: false (0)
